System: biotinyl-Phe-oxazolone
assay.details: self-aminoacylation, catalytic enhancement (BFO) (fold over background); higher = more active; k-Seq, kA / k0A0; sequences stand for … in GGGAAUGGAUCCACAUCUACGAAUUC…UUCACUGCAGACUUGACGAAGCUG
Variants at the floor of the assay were thinned out.
metric.name: self-aminoacylation
// return a plain number; no unit text

Guide cases for self-aminoacylation, answers given:
{"primary.sequence": "AUUACCCUAGUCAACGAGUGA [Fam2.1 aminoacylation ribozyme variant]", "recorded.result": 25.6}
{"primary.sequence": "AUUGCCCUAGGUCAUCGGGUG [Fam2.2 aminoacylation ribozyme variant]", "recorded.result": 62.7}
{"primary.sequence": "AACUUUGGUAAUAGUCGCAAG [Fam3.1 aminoacylation ribozyme variant]", "recorded.result": 3.84}
{"primary.sequence": "CAGUUUGCUAAUAGUAGCAAG [Fam3.1 aminoacylation ribozyme variant]", "recorded.result": 2.46}

Attention now shifts to the item below.
-- ask Recorded self-aminoacylation for AUGGACCUAGGUCAUCGGGUG [Fam2.2 aminoacylation ribozyme variant] with biotinyl-Phe-oxazolone, please?
-- reply 22

---

System: biotinyl-Val-oxazolone
assay.details: self-aminoacylation, catalytic enhancement (BVO) (fold over background); higher = more active; k-Seq, kA / k0A0; sequences stand for … in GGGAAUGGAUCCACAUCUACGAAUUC…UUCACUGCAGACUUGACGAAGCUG
Variants at the floor of the assay were thinned out.
Binned self-aminoacylation; ranges: low range: < 1; mid range: ≥ 1 and < 3; high range: ≥ 3

As a guide, the following entries are already answered.
{"primary.sequence": "CCACACUUCAAGCACCCGGUC [Fam1B.1 aminoacylation ribozyme variant]", "class.label": "mid range"}
{"primary.sequence": "CGACACAUCAAGCAAUCGGUC [Fam1B.1 aminoacylation ribozyme variant]", "class.label": "mid range"}
{"primary.sequence": "AUUGACCUAGGUGAUCGGGUG [Fam2.2 aminoacylation ribozyme variant]", "class.label": "high range"}

-- ask State the band of AUUCACCUAGGUCAGCGGGGG [Fam2.2 aminoacylation ribozyme variant]
-- reply high range

-- ask State the band of CUACCUCAAACGAUCGGUCUG [Fam1A.1 aminoacylation ribozyme variant]
-- reply low range

-- ask State the band of CCACACUUCAAGCUAACGGUC [Fam1B.1 aminoacylation ribozyme variant]
-- reply low range

-- ask State the band of AGGUUUCCUAAUAGUCGCAAG [Fam3.1 aminoacylation ribozyme variant]
-- reply mid range

-- ask State the band of AAGUUUGCUAAUAGACGCUAG [Fam3.1 aminoacylation ribozyme variant]
-- reply low range

---

Tested on: biotinyl-Phe-oxazolone
assay.details: self-aminoacylation, catalytic enhancement (BFO) (fold over background); higher = more active; k-Seq, kA / k0A0; sequences stand for … in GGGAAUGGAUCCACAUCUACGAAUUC…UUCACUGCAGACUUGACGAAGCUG
Fewer inactive variants are shown than the library holds.
metric.name: self-aminoacylation
// return a plain number; no unit text

Guide cases for self-aminoacylation, answers given:
{"primary.sequence": "AUCACCCUGGUCAUCAAGUGA [Fam2.1 aminoacylation ribozyme variant]", "self-aminoacylation": 14.2}
{"primary.sequence": "GAGUUGGCUAAUAGUCGCAAG [Fam3.1 aminoacylation ribozyme variant]", "self-aminoacylation": 2.86}
{"primary.sequence": "AUUACCCUGGUGCUCGAGUGA [Fam2.1 aminoacylation ribozyme variant]", "self-aminoacylation": 25}
{"primary.sequence": "AAGUUUGUCAAUAGUCGCAAG [Fam3.1 aminoacylation ribozyme variant]", "self-aminoacylation": 3.72}

Attention now shifts to the item below.
-- ask What does the data say about its self-aminoacylation? Entry: AAGGUUGCUAAUAGUCUCAAG [Fam3.1 aminoacylation ribozyme variant]
-- reply 2.46

---

Test system: biotinyl-Trp-oxazolone
assay.details: self-aminoacylation, catalytic enhancement (BWO) (fold over background); higher = more active; k-Seq, kA / k0A0; sequences stand for … in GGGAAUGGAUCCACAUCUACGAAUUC…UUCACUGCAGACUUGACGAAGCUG
Fewer inactive variants are shown than the library holds.
Binned self-aminoacylation; ranges: A: < 0.9; B: ≥ 0.9 and < 10; C: ≥ 10

{"primary.sequence": "AGUCACCUAGGUCAUCGGGUC [Fam2.2 aminoacylation ribozyme variant]", "measurement.target": "biotinyl-Trp-oxazolone", "class.label": "B"}
{"primary.sequence": "AUUACCCUGGUCUUCGAGUGG [Fam2.1 aminoacylation ribozyme variant]", "measurement.target": "biotinyl-Trp-oxazolone", "class.label": "A"}

-- ask State the band of AUUAGCCUGGUCACCGAGUGA [Fam2.1 aminoacylation ribozyme variant]
-- reply C

-- ask State the band of CCACACUUCAUGCAACCGGUC [Fam1B.1 aminoacylation ribozyme variant]
-- reply A

---

Item-by-item account of self-aminoacylation
System: biotinyl-Met-oxazolone
assay.details: self-aminoacylation, catalytic enhancement (BMO) (fold over background); higher = more active; k-Seq, kA / k0A0; sequences stand for … in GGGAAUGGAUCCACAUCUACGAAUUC…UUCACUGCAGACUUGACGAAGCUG
This sample holds only a part of the variants without activity.
// return a plain number; no unit text

-- ask What does the data say about its self-aminoacylation? Entry: AUUACCCCGGUCCUCGAGUGA [Fam2.1 aminoacylation ribozyme variant]
-- reply 3.32

-- ask What does the data say about its self-aminoacylation? Entry: CCUCAGUUCAAGCAAUCGGUC [Fam1B.1 aminoacylation ribozyme variant]
-- reply 1.17

---

System: biotinyl-Phe-oxazolone
assay.details: self-aminoacylation, catalytic enhancement (BFO) (fold over background); higher = more active; k-Seq, kA / k0A0; sequences stand for … in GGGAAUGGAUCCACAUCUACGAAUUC…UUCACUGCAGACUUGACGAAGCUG
This sample holds only a part of the variants without activity.
Answer condition not met if self-aminoacylation is under 30, and condition met if it is 30 or more.

As a guide, the following entries are already answered.
{"primary.sequence": "ACGUUUGCUCAUAGUCGCAAG [Fam3.1 aminoacylation ribozyme variant]", "class.label": "condition not met"}
{"primary.sequence": "AUUACCGUGGUUAUCGAGUGA [Fam2.1 aminoacylation ribozyme variant]", "class.label": "condition met"}
{"primary.sequence": "AUUCACCUCGGUAAUCGGGUG [Fam2.2 aminoacylation ribozyme variant]", "class.label": "condition met"}

-- ask In plain terms: is recorded self-aminoacylation at least 30 for AUUGACCGAGGUCAUCGGGUG [Fam2.2 aminoacylation ribozyme variant] ?
-- reply condition met

-- ask In plain terms: is recorded self-aminoacylation at least 30 for CUACUGCAAACAAUCCGUCUG [Fam1A.1 aminoacylation ribozyme variant] ?
-- reply condition not met

-- ask In plain terms: is recorded self-aminoacylation at least 30 for ACACAUUUCAAGCAAUCGGUC [Fam1B.1 aminoacylation ribozyme variant] ?
-- reply condition not met

-- ask In plain terms: is recorded self-aminoacylation at least 30 for CCACACUUCGACCAAUCGGUC [Fam1B.1 aminoacylation ribozyme variant] ?
-- reply condition not met

-- ask In plain terms: is recorded self-aminoacylation at least 30 for AUGUUUGCUAAGAGUCGCAAG [Fam3.1 aminoacylation ribozyme variant] ?
-- reply condition not met

-- ask In plain terms: is recorded self-aminoacylation at least 30 for GCGUUUGCUAAUAGUCGCAAG [Fam3.1 aminoacylation ribozyme variant] ?
-- reply condition not met

-- ask In plain terms: is recorded self-aminoacylation at least 30 for AUUACCCCGGUCGUCGAGUGA [Fam2.1 aminoacylation ribozyme variant] ?
-- reply condition not met

-- ask In plain terms: is recorded self-aminoacylation at least 30 for AUCCCCCUAGGUCAUCGGGUG [Fam2.2 aminoacylation ribozyme variant] ?
-- reply condition met

-- ask In plain terms: is recorded self-aminoacylation at least 30 for AUUAUCCUAGGUCAUCGGGUG [Fam2.2 aminoacylation ribozyme variant] ?
-- reply condition met

-- ask In plain terms: is recorded self-aminoacylation at least 30 for AAGUUUGCUAAUAGGCGCAAU [Fam3.1 aminoacylation ribozyme variant] ?
-- reply condition not met

-- ask In plain terms: is recorded self-aminoacylation at least 30 for UAGUUUGCUAAUAGUCGCUAG [Fam3.1 aminoacylation ribozyme variant] ?
-- reply condition not met

-- ask In plain terms: is recorded self-aminoacylation at least 30 for CCACAGAUCAAGCAAUCGGUC [Fam1B.1 aminoacylation ribozyme variant] ?
-- reply condition not met

-- ask In plain terms: is recorded self-aminoacylation at least 30 for AUUCCCCUGGUAAUCGAGUGA [Fam2.1 aminoacylation ribozyme variant] ?
-- reply condition met

-- ask In plain terms: is recorded self-aminoacylation at least 30 for AAGUUGGCUAAAAGUCGCAAG [Fam3.1 aminoacylation ribozyme variant] ?
-- reply condition not met

-- ask In plain terms: is recorded self-aminoacylation at least 30 for CCACACUUCAAGCAACCGGCC [Fam1B.1 aminoacylation ribozyme variant] ?
-- reply condition not met
